# System: DU-145 prostate
# EXPERIMENT_NOTES: NCI tumour cell line growth inhibition, 48 h
Let's look at some compounds and their measured TGI.
State the answer as a number, implicitly in µM.

Example compounds with recorded TGI:
C[C@@H](CO)C1=CC(C#C[Si](C)(C)C)N(C(=O)Oc2ccccc2)c2ccccc21 (stereo not given in full) = 48.1
C=C(C)[C@@H]1CCC2=C[C@H](OC2=O)[C@@]2(C)C[C@@H]2C(=O)/C=C(/C)C(=O)[C@H]1OC(C)=O = 21

**Query** Which value of TGI has been reported for "C/C(=C\CCc1ccsc1)CC/C=C(\C)CCCN1CCC(CO)CC1" in the records?
**Result** 16.1

**Query** Dear colleague, I am looking for the recorded TGI of the following compound: "CN(C)C(=S)N/N=C(\C(=N/NC(=S)N(C)C)c1ccccn1)c1ccccn1"
**Result** 10.8

* * *

Catalogue of TGI readings, one per entry.
# System: RXF 393 renal
# EXPERIMENT_NOTES: NCI tumour cell line growth inhibition, 48 h

CNCCCNC1(c2cc3ccccc3s2)CCCCC1 = 12.2 µM
CCCc1nc(NC#N)nc(C(=O)NC23CC4CC(CC(C4)C2)C3)c1C = > 100 µM
CNC(=O)NC(CCCCNC(=O)OCc1ccccc1)C(=O)OCc1ccccc1 (stereo unspecified) = 53.6 µM
COc1ccc(-c2cc(-c3cc(C)ccc3O)[nH]c(=O)n2)cc1 = 88.6 µM
COC(=O)c1ccc(COC(=O)N2C=CCC2C(=O)O)cc1 (stereo unspecified) = > 100 µM

**Query** // lookup TGI for "C/C(=N/c1[nH]c(=O)cc2c1C(=O)CC2)N(C)C"
**Result** > 200 µM

* * *

# System: LOX IMVI melanoma
# EXPERIMENT_NOTES: NCI tumour cell line growth inhibition, 48 h
Where a SMILES comes first, the peptide text is derived from it.
The entries below come with measured TGI values attached.

C/C(=N/c1[nH]c(=O)cc2c1C(=O)CC2)N(C)C = > 200 µM
CNC(=O)CNC(=O)C(NC(=O)CNC(=O)C1CCCN1C(=O)C(C)NC(=O)C(NC(C)=O)C(C)C)C(C)C (stereo not drawn) (Ac-VAPGVG-NHMe; configuration not given here) = > 100 µM
CCN(CC)CCCCNc1ncc2cc(-c3cc(OC)cc(OC)c3)c(NC(=O)NC(C)(C)C)nc2n1 = 18.8 µM
O=C(NCCNc1nccc(-c2c(-c3cccc(O)c3)nc3sccn23)n1)Nc1cccc(C(F)(F)F)c1 = 26.2 µM
CSc1nc(C)c(Br)c(=O)n1C1OC(COC(C)=O)C(OC(C)=O)C(OC(C)=O)C1OC(C)=O (stereo not drawn) = > 100 µM

**Query** I have this compound here, O=C(Cc1ccccc1)NC(c1ccc(Cl)cc1)c1c(O)ccc2ccccc12 (stereo not drawn) , and I need its recorded TGI.
**Result** 9.71 µM

**Query** For Cc1ccc([N+](=O)[O-])cc1S(=O)(=O)Nc1ccc(C2=NN(C(=O)c3ccccc3)C(c3cccs3)C2)cc1 (stereo not drawn) , what is its reported TGI?
**Result** > 100 µM

**Query** Request the reported TGI associated with "COc1cc(NC(=O)CSc2nc3ccccc3c(=O)n2CCc2ccccc2)cc(OC)c1OC"
**Result** > 100 µM
